- System: cellular dehydrogenase activity
- Test conditions: composite Z-score vs DMSO; Conc 20 μM
Mark Criterion met for reported MTT of -2 or greater; mark Criterion not met for anything smaller.

Molecule	Answer label
N[C@H]1C(O)O[C@H](CO)[C@H](O)[C@@H]1O[C@@H]1O[C@H](C(=O)O)[C@@H](O)[C@H](O)[C@H]1O (some centres unmarked)	Criterion met
CC(C)CCC[C@@H](C)[C@H]1CC[C@H]2[C@@H]3CC(=O)[C@H]4C[C@@H](O)CC[C@]4(C)[C@H]3CC[C@]12C	Criterion met
C[C@]12CC[C@@H]3c4ccc(O)cc4CC[C@H]3[C@@H]1CC[C@@H]2O	Criterion met
C[C@@H]1O[C@@H](O[C@H]2[C@H](O[C@H]3CC[C@@]4(C)[C@@H](CC[C@]5(C)[C@@H]4CC=C4[C@@H]6CC(C)(C)CC[C@]6(C(=O)O)CC[C@]45C)[C@]3(C)CO)OC[C@H](O)[C@@H]2O)[C@H](O)[C@H](O)[C@H]1O [sapindoside A]	Criterion not met
CC(=O)OCC(=O)[C@@]1(O)CCC2C3CC[C@@H]4C[C@H](OC(C)=O)CC[C@]4(C)C3C(=O)C[C@@]21C (some centres unmarked) [tetrahydrocortisone-3,21-diacetate]	Criterion met
